For reference, the following Ki results for 5-hydroxytryptamine receptor 5A (Homo sapiens, UniProt P47898) were taken from various sources.

Value wanted: Ki (5-hydroxytryptamine receptor 5A (Homo sapiens, UniProt P47898)) of entry COc1ccccc1Cn1cc(-c2ccc(C#N)s2)nc1N
< 600 nM

Quick check: Ki on 5-hydroxytryptamine receptor 5A (Homo sapiens, UniProt P47898), item NC(N)=NC(=O)c1ccc2cccc(-c3ccnc(C(F)(F)F)n3)c2c1 ?
3 to 30 nM

Query Ki on 5-hydroxytryptamine receptor 5A (Homo sapiens, UniProt P47898) for COc1cccc(OC)c1CNC(=N)Nc1cc(-c2ccc(Cl)cc2)[nH]n1
< 50 nM

Hi! What's the reported Ki for COc1cccc(OC)c1CNC(=N)Nc1nc(-c2cccc(C(F)(F)F)c2)cs1 on 5-hydroxytryptamine receptor 5A (Homo sapiens, UniProt P47898)?
> 500 nM

Notebook: pull reported Ki for 5-hydroxytryptamine receptor 5A (Homo sapiens, UniProt P47898), entry Cc1cccc2c1c1ccc(C(=O)N=C(N)N)cc1n2C1CC=C(F)CC1 (stereo not shown)
≤ 50 nM

Quick check: Ki on 5-hydroxytryptamine receptor 5A (Homo sapiens, UniProt P47898), item Cl.NC(N)=NC(=O)N1CCc2c(F)ccc(-c3ncc(F)cc3F)c2C1 ?
6.9 nM

Identify the measured Ki of COc1ccccc1Cc1cc2cc(N3CCOCC3)c(F)cc2nc1N for 5-hydroxytryptamine receptor 5A (Homo sapiens, UniProt P47898).
< 300 nM

Value wanted: Ki (5-hydroxytryptamine receptor 5A (Homo sapiens, UniProt P47898)) of entry COc1cccc(C)c1CNC(=N)Nc1ccc(C)cn1
< 100 nM

# query: Ki | item COc1cccc(OC)c1CNC(=N)Nc1ccn(-c2ccccc2)n1 | system: 5-hydroxytryptamine receptor 5A (Homo sapiens, UniProt P47898)
< 50 nM

# get_value(readout= Ki, system= 5-hydroxytryptamine receptor 5A (Homo sapiens, UniProt P47898)) for COc1cccc(OC)c1CNC(=N)Nc1nc(-c2c(OC)cccc2OC)cs1
< 50 nM

// map Nc1nc2ccccc2cc1Cc1ccccc1OC(F)F to recorded Ki (system: 5-hydroxytryptamine receptor 5A (Homo sapiens, UniProt P47898))
< 300 nM

// lookup Ki | system=5-hydroxytryptamine receptor 5A (Homo sapiens, UniProt P47898) | key= Cc1ccc2ccc(C(=O)N=C(N)N)cc2c1-c1ccccc1O
3 to 30 nM

Query the reported Ki for 5-hydroxytryptamine receptor 5A (Homo sapiens, UniProt P47898); item: N#Cc1ccc(F)cc1C1=CCCc2ccc(C(=O)N=C(N)N)cc21
30 to 300 nM

Value wanted: Ki (5-hydroxytryptamine receptor 5A (Homo sapiens, UniProt P47898)) of entry COc1cccc(C)c1CNC(=N)Nc1ncccc1C
< 100 nM

For 5-hydroxytryptamine receptor 5A (Homo sapiens, UniProt P47898), provide Ki of N/C(=N\C(=O)c1ccc2c3ccccc3n(C3CCOCC3)c2c1)NCc1ccccc1 please.
1.6 nM

GET /values?readout=Ki&system=5-hydroxytryptamine receptor 5A (Homo sapiens, UniProt P47898)&item= NC(N)=NC(=O)c1ccc2c(c1)C(c1ccccc1O)=CCC2
3 to 30 nM
